# System: BDF1 mice, P388 leukemia ip, median survival T/C
# assay info: NCI In Vivo Anticancer Drug Screen. Data for tumor model P388 Leukemia (intraperitoneal) in B6D2F1 (BDF1) mice
# condition info: endpoint: median survival time; dose: 200.0 mg/kg/injection; schedule: Q04DX003 (ip); vehicle: saline sonified; higher = longer survival
Inconclusive results and toxic doses are left out.
metric: T/C

Below are worked cases with known answers.
In: Reported T/C for `CCn1cnc2c(SC3CCCC3)ncnc21` : what is it?
Out: 100 % of control

In: Reported T/C for `CC(=O)Nc1ccc(/C=N/Nc2ccc([N+](=O)[O-])cn2)cc1` : what is it?
Out: 105 % of control

In: Reported T/C for `Clc1ccc(N2CCN(CCCN3CCN(c4cccc(Cl)c4)CC3)CC2)cc1` : what is it?
Out: 91 % of control

New cases:
In: Reported T/C for O=c1[nH]c(=O)n(C2CC(O)C(CO)O2)cc1Br (stereo not given) : what is it?
Out: 100 % of control

In: Reported T/C for `CN(C)c1ccc(/C=C2\C=Cc3ccccc32)cc1F` : what is it?
Out: 110 % of control

----------
# Tested on: BDF1 mice, P388 leukemia ip, median survival T/C
# assay info: NCI In Vivo Anticancer Drug Screen. Data for tumor model P388 Leukemia (intraperitoneal) in B6D2F1 (BDF1) mice
# condition info: endpoint: median survival time; dose: 400.0 mg/kg/injection; schedule: Q01DX001 (ip); vehicle: Klucel (hydroxypropylcellulose) (HPC); higher = longer survival
Inconclusive results and toxic doses are left out.
metric: T/C

Below are worked cases with known answers.
In: Reported T/C for `Brc1ccc(C#Cc2ccccc2)cc1` : what is it?
Out: 108 % of control

In: Reported T/C for Cc1ccccc1C1c2ccccc2C(=O)c2cccc(C)c21 (stereo not drawn) : what is it?
Out: 100 % of control

In: Reported T/C for `O=C(/C=C/c1ccc2c(c1)OCO2)c1ccc([N+](=O)[O-])cc1` : what is it?
Out: 92 % of control

In: Reported T/C for `C=C(CCCCC)C(=O)/C=C/c1ccc(Cl)cc1` : what is it?
Out: 118 % of control

In: Reported T/C for `O=c1[nH]cc(CCc2ccccc2)c(=O)[nH]1` : what is it?
Out: 105 % of control

New cases:
In: Reported T/C for `CCOC(CN=Cc1ccc(Cl)c(Cl)c1)OCC` : what is it?
Out: 95 % of control

In: Reported T/C for `CN(C)C(=S)Sc1ccc([N+](=O)[O-])cc1[N+](=O)[O-]` : what is it?
Out: 100 % of control

In: Reported T/C for `Nc1cc(C(F)(F)F)ccc1S(=O)(=O)O` : what is it?
Out: 100 % of control

----------
Documented T/C across a set of compounds
# Tested on: BDF1 mice, P388 leukemia ip, median survival T/C
# assay info: NCI In Vivo Anticancer Drug Screen. Data for tumor model P388 Leukemia (intraperitoneal) in B6D2F1 (BDF1) mice
# condition info: endpoint: median survival time; dose: 12.5 mg/kg/injection; schedule: Q01DX009 (ip); vehicle: saline; higher = longer survival
Inconclusive results and toxic doses are left out.

In: Reported T/C for `CCC1CC[N-]CC1.CCC1CC[N-]CC1.[Cl][Pt+2]([Cl])([Cl])[Cl]` : what is it?
Out: 110 % of control

In: Reported T/C for c1ccc2c(c1)CC1CCCCN1C2 (centres undefined) : what is it?
Out: 100 % of control

In: Reported T/C for `O=C(O)CN=Cc1ccccc1O.O=C(O)CN=Cc1ccccc1O.[Fe]` : what is it?
Out: 115 % of control

New cases:
In: Reported T/C for OCC1C2CCC(C2)C1CO (centres undefined) : what is it?
Out: 105 % of control
